Settings: bacteroides thetaiotaomicron, 12 h, 2 µM
Description: The drug is tested on Bacteroides thetaiotaomicron strain: 7330 for biotransformation. The drug concentrations were measured before and after a 12-h incubation by liquid-chromatography-coupled mass spectrometry (LC–MS)
measured.parameter: Bacterial Biotransformation

COc1ccccc1OCC(O)COC(N)=O (stereo not drawn) ... Compound NOT metabolized
C=CC[C@@H]1/C=C(\C)C[C@H](C)C[C@H](OC)[C@H]2O[C@@](O)(C(=O)C(=O)N3CCCC[C@H]3C(=O)O[C@H](/C(C)=C/[C@@H]3CC[C@@H](O)[C@H](OC)C3)[C@H](C)[C@@H](O)CC1=O)[C@H](C)C[C@@H]2OC.O ... Compound NOT metabolized
Br.CN1CCC[C@@H]1Cc1c[nH]c2ccc(CCS(=O)(=O)c3ccccc3)cc12 [ELETRIPTAN HYDROBROMIDE] ... Compound NOT metabolized

---

Test: The drug is tested on Subdoligranulum variabile strain: DSM15176 for biotransformation. The drug concentrations were measured before and after a 12-h incubation by liquid-chromatography-coupled mass spectrometry (LC–MS)
Settings: 2 µM
measured.parameter: Bacterial Biotransformation

CC(=O)OCC(=O)[C@@]12N=C(C)O[C@@H]1C[C@H]1[C@@H]3CCC4=CC(=O)C=C[C@]4(C)[C@H]3[C@@H](O)C[C@@]12C [DEFLAZACORT] ... Compound metabolized
C#C[C@]1(OC(C)=O)CC[C@H]2[C@@H]3CCC4=CC(=O)CC[C@@H]4[C@H]3CC[C@@]21C [NORETHINDRONE ACETATE] ... Compound NOT metabolized
CCN(CC)C(=O)/C(C#N)=C/c1cc(O)c(O)c([N+](=O)[O-])c1 [ENTACAPONE] ... Compound metabolized
COc1ccc(Cc2nccc3cc(OC)c(OC)cc23)cc1OC [PAPAVERINE] ... Compound NOT metabolized

---

Assay: The drug is tested on Blautia hansenii strain: DSM20583 for biotransformation. The drug concentrations were measured before and after a 12-h incubation by liquid-chromatography-coupled mass spectrometry (LC–MS)
Conditions: 2 µM
measured.parameter: Bacterial Biotransformation

# annotated cases, reported Bacterial Biotransformation shown
CC(C)c1nc(N(C)S(C)(=O)=O)nc(-c2ccc(F)cc2)c1/C=C/[C@@H](O)C[C@@H](O)CC(=O)[O-].CC(C)c1nc(N(C)S(C)(=O)=O)nc(-c2ccc(F)cc2)c1/C=C/[C@@H](O)C[C@@H](O)CC(=O)[O-].[Ca+2] ... Compound NOT metabolized
CCN1CCCC1CNC(=O)c1cc(S(N)(=O)=O)ccc1OC (centres undefined) [SULPIRIDE] ... Compound NOT metabolized
CN1CCc2c(c3ccccc3n2Cc2ccccc2)C1.CN1CCc2c(c3ccccc3n2Cc2ccccc2)C1.O=S(=O)(O)c1cccc2c(S(=O)(=O)O)cccc12 ... Compound NOT metabolized
CCC(C)n1ncn(-c2ccc(N3CCN(c4ccc(OCC5COC(Cn6cncn6)(c6ccc(Cl)cc6Cl)O5)cc4)CC3)cc2)c1=O (centres undefined) ... Compound metabolized
CC(=O)OCC(=O)[C@@]12N=C(C)O[C@@H]1C[C@H]1[C@@H]3CCC4=CC(=O)C=C[C@]4(C)[C@H]3[C@@H](O)C[C@@]12C ... Compound metabolized
CC[C@@H](CO)NC(=O)[C@@H]1C=C2c3cccc4c3c(cn4C)C[C@H]2N(C)C1.O=C(O)/C=C\C(=O)O [METHYSERGIDE MALEATE] ... Compound metabolized
Fc1ccc([C@@H]2CCNC[C@H]2COc2ccc3c(c2)OCO3)cc1 ... Compound NOT metabolized
CN1[C@@H]2CC[C@H]1C[C@@H](OC(=O)c1c[nH]c3ccccc13)C2 ... Compound NOT metabolized

If you can, please state the reported Bacterial Biotransformation value of O=c1[nH]c2ccccc2n1C1CCN(CCCC(c2ccc(F)cc2)c2ccc(F)cc2)CC1 [PIMOZIDE] .
Compound NOT metabolized

Which Bacterial Biotransformation is listed for CCOc1cc(CC(=O)N[C@@H](CC(C)C)c2ccccc2N2CCCCC2)ccc1C(=O)O [REPAGLINIDE] ?
Compound NOT metabolized

---

Assay: The drug is tested on Collinsella intestinalis strain: DSM13280 for biotransformation. The drug concentrations were measured before and after a 12-h incubation by liquid-chromatography-coupled mass spectrometry (LC–MS)
Conditions: 2 µM
measured.parameter: Bacterial Biotransformation

The following compounds have reported results that may help.
O=C(Nc1ccccc1)OCC(CN1CCCCC1)OC(=O)Nc1ccccc1 (stereo not drawn) [DIPERODON] ... Compound NOT metabolized
CC12CC3CC(C)(C1)CC(N)(C3)C2 [MEMANTINE] ... Compound NOT metabolized
COc1cc(NC(C)CCCN)c2ncccc2c1.O=P(O)(O)O.O=P(O)(O)O (stereo not drawn) [PRIMAQUINE PHOSPHATE] ... Compound metabolized
CC(C)(C)NC(=O)[C@H]1CC[C@H]2[C@@H]3CC[C@H]4NC(=O)C=C[C@]4(C)[C@H]3CC[C@]12C [FINASTERIDE] ... Compound NOT metabolized
CNNCc1ccc(C(=O)NC(C)C)cc1 [PROCARBAZINE] ... Compound NOT metabolized

Give its Bacterial Biotransformation value. Item: CCCCCCOC(=O)/N=C(/N)c1ccc(NCc2nc3cc(C(=O)N(CCC(=O)OCC)c4ccccn4)ccc3n2C)cc1.CS(=O)(=O)O [DABIGATRAN ETEXILATE MESYLATE]
Compound NOT metabolized

Which Bacterial Biotransformation value is on record for CCOc1ccc2nc(S(N)(=O)=O)sc2c1 [ETHOXZOLAMIDE] ?
Compound metabolized

Look up Bacterial Biotransformation: COc1ccc2c3c1O[C@H]1C[C@@H](O)C=C[C@@]31CCN(C)C2 [GALANTAMINE]
Compound NOT metabolized

---

Details: bacteroides intestinalis, 12 h, 2 µM
Description: The drug is tested on Bacteroides intestinalis strain: DSM17393 for biotransformation. The drug concentrations were measured before and after a 12-h incubation by liquid-chromatography-coupled mass spectrometry (LC–MS)
measured.parameter: Bacterial Biotransformation

COC(=O)[C@H](c1ccccc1Cl)N1CCc2sccc2C1.O=S(=O)(O)O [CLOPIDOGREL BISULFATE] ... Compound NOT metabolized
COc1ccccc1OCCNCC(O)COc1cccc2[nH]c3ccccc3c12 (centres undefined) ... Compound metabolized
CCCN1C[C@H](CSC)C[C@@H]2c3cccc4[nH]cc(c34)C[C@H]21.CS(=O)(=O)O [PERGOLIDE MESYLATE] ... Compound NOT metabolized
CC[C@@H](CO)NC(=O)[C@@H]1C=C2c3cccc4c3c(cn4C)C[C@H]2N(C)C1.O=C(O)/C=C\C(=O)O [METHYSERGIDE MALEATE] ... Compound metabolized

---

Test: The drug is tested on Clostridium asparagiforme strain: DSM15981 for biotransformation. The drug concentrations were measured before and after a 12-h incubation by liquid-chromatography-coupled mass spectrometry (LC–MS)
Format: ADME
Set-up: dose 2 uM, timepoint 0 vs 12 hours
Details: enterocloster asparagiformis, 2 µM
measured.parameter: Bacterial Biotransformation

# annotated cases, reported Bacterial Biotransformation shown
CN1CCN(C(=O)O[C@H]2c3nccnc3C(=O)N2c2ccc(Cl)cn2)CC1 ... Compound NOT metabolized
CC(CN(C)C)CN1c2ccccc2CCc2ccccc21.O=C(O)/C=C\C(=O)O (stereo not drawn) [TRIMIPRAMINE MALEATE] ... Compound NOT metabolized
C=CC[C@@H]1/C=C(\C)C[C@H](C)C[C@H](OC)[C@H]2O[C@@](O)(C(=O)C(=O)N3CCCC[C@H]3C(=O)O[C@H](/C(C)=C/[C@@H]3CC[C@@H](O)[C@H](OC)C3)[C@H](C)[C@@H](O)CC1=O)[C@H](C)C[C@@H]2OC.O ... Compound metabolized
CN1C[C@H](C(=O)N[C@]2(C)O[C@@]3(O)[C@@H]4CCCN4C(=O)[C@H](Cc4ccccc4)N3C2=O)C=C2c3cccc4[nH]cc(c34)C[C@H]21.CN1C[C@H](C(=O)N[C@]2(C)O[C@@]3(O)[C@@H]4CCCN4C(=O)[C@H](Cc4ccccc4)N3C2=O)C=C2c3cccc4[nH]cc(c34)C[C@H]21.O=C(O)C(O)C(O)C(=O)O [ERGOTAMINE TARTRATE] ... Compound metabolized

Now for the compound whose Bacterial Biotransformation we want.
# input compound: CCOc1ccccc1OCCN[C@H](C)Cc1ccc(OC)c(S(N)(=O)=O)c1.Cl [TAMSULOSIN HYDROCHLORIDE] ; wanted: its Bacterial Biotransformation
Compound NOT metabolized

---

Experiment: The drug is tested on Bacteroides ovatus strain: ATCC8483 for biotransformation. The drug concentrations were measured before and after a 12-h incubation by liquid-chromatography-coupled mass spectrometry (LC–MS)
Settings: 2 µM
measured.parameter: Bacterial Biotransformation

O=C(CCCN1CCC2(CC1)C(=O)NCN2c1ccccc1)c1ccc(F)cc1 [SPIPERONE] ... Compound NOT metabolized
CCOc1ccc2nc(S(N)(=O)=O)sc2c1 [ETHOXZOLAMIDE] ... Compound metabolized
c1ccc([C@H]2CN3CCSC3=N2)cc1 [LEVAMISOLE] ... Compound metabolized
CCOc1ccc(NC(C)=O)cc1 [PHENACETIN] ... Compound NOT metabolized
OC(Cn1cncn1)(Cn1cncn1)c1ccc(F)cc1F [FLUCONAZOLE] ... Compound metabolized
COc1ccnc(C[S+]([O-])c2nc3ccc(OC(F)F)cc3[nH]2)c1OC (centres undefined) [PANTOPRAZOLE] ... Compound metabolized

Which Bacterial Biotransformation is listed for O=C(O)c1cc(/N=N/c2ccc(S(=O)(=O)Nc3ccccn3)cc2)ccc1O [SULFASALAZINE] ?
Compound metabolized

What does the record list as Bacterial Biotransformation for CC(=O)O[C@]1(C(C)=O)CC[C@H]2[C@@H]3C=C(Cl)C4=CC(=O)[C@@H]5C[C@@H]5[C@]4(C)[C@H]3CC[C@@]21C [CYPROTERONE ACETATE] ?
Compound metabolized

Bacterial Biotransformation lookup needed for COCCc1ccc(OCC(O)CNC(C)C)cc1.COCCc1ccc(OCC(O)CNC(C)C)cc1.O=C(O)C(O)C(O)C(=O)O (centres undefined) [METOPROLOL TARTRATE] , thanks.
Compound NOT metabolized
